Source of measurements: patent US20220396632A1

# studySystem: T1, Biotin Y46,48,51(SO3) PSGL-1(42-62) peptide (human, sulfotyrosine at Y46, Y48 and Y51; C-terminal Lys-biotin)
# T1 construct: also called fully sulfated N-terminal PSGL-1 peptide
# T1 peptide: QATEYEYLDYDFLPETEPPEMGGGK
# procedureDetails: ELISA, plate-bound mAb captures biotin peptide
experimentalEndpoint: pEC50
Answers are plain numbers, as −log10 of the molar value.

binder	pEC50
PSG3 (antibody, V domains shown, Control anti-PSGL-1 mAb; only variable domains given) VH: QVQLVQSGAEVKKPGSSVRVSCKASGGSFSSYGIHWVQQAPGQGLEWMGRIIPVLRIRNYAQKFHDRVTIDADTSTGTAYMELSSLTSDDTAVYYCAGSRQGVAPTGYWGQGTMVTVSS VL: QAVLTQPSSLSASPGASASLTCNLRSGIDVGTYRIYWYQQKPGSPPQYLLRYKSDSDKQQGSGVPSRFSGTKDASANAGILLISGLQSEDEADYYCMIWHSNGWVFGGGTKLTVL	7.03

What does the data say about its pEC50? Entry: 20I15 (antibody, V domains shown, From mouse immunisation; only variable domains given; also called 20115) VH: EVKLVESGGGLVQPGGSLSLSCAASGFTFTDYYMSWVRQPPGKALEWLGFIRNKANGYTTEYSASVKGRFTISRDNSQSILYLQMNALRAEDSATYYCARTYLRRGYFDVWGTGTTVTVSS VL: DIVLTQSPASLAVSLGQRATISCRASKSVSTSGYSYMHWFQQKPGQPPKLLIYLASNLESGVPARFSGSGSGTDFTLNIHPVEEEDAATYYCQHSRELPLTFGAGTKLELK 6.53
